# credit: PubChem BioAssay

measurement.notes: reversal of MRP1-mediated doxorubicin resistance, pilot screen, H69AR cells, doxorubicin co-treatment (AID 601)
measurement.parameters: H69AR cells + 2 uM doxorubicin, CellTiter-Glo, 72 h; measured here: viability with 2 uM doxorubicin; at 10 µM; stronger effect = lower value
For each record, check the reported viability: if it is below 90% write Y, else write N.

Worked examples follow.
INSERT INTO assay_data (compound, classification) VALUES
  ('O=C(NCC1COCCO1)C1CCN(S(=O)(=O)c2ccccc2)CC1 (configuration not stated)', 'N'),
  ('CCOc1cc(-c2nc3ccccn3c2NCC2CCCO2)ccc1O (configuration not stated)', 'Y'),
  ('O=C(CN1CCN(C(=O)c2ccccc2)CC1)Nc1ncc(Br)cc1Br', 'Y');

# input Is the reported viability for Cc1cccc(NC(=O)CSc2nnc(-c3cc(C)n(-c4ccccc4)c3C)o2)c1C strictly below 90%?
# output Y

# input Hello, is viability of the following compound strictly smaller than 90%? O=S(=O)(NCc1cn2ccsc2n1)c1ccc2c(c1)OCCO2
# output N

# input Please let me know if CCOC(=O)c1ccccc1NC(=O)N1CCn2c(C)ccc2C1CC (configuration not stated) shows viability below 90%.
# output Y

# input Below 90% on viability? Entry COc1cccc(CN(C)CC(=O)NC(=O)NCc2ccco2)c1
# output Y

# input State whether 90% exceeds viability recorded for CC(Oc1ccccc1)C(=O)NC1CCN(Cc2ccccc2)CC1 (configuration not stated) .
# output Y

# input Record COCc1ccccc1Cn1cnc2c1c(=O)n(C)c(=O)n2C : is its viability strictly below 90%?
# output N

# input Lab note: viability threshold 90%. Does this compound come in strictly under it? C/C(=C(\C#N)C(=O)NCCCN1CCOCC1)N(C)C
# output N

###

measurement.notes: 384-well plate pilot, post-Golgi transport modulator project, inhibition of yeast transport mutant growth (AID 636)
measurement.parameters: absorbance 615 nm, about 18 h, stronger effect = higher value
quantity.name: inhibition (%)
Give bare numbers, in %.

INSERT INTO measurements (compound, unit_text, recorded_measurement) VALUES
  ('O=C(COC(=O)C1CCN(S(=O)(=O)c2cccs2)CC1)c1cc2ccccc2o1', '%', -2.19),
  ('CC(=O)c1cn(CC(=O)NCc2ccc3c(c2)OCO3)c2ccccc12', '%', -9.32),
  ('C=CCOc1ccc(C2C(C(=O)c3ccco3)=C(O)C(=O)N2Cc2cccnc2)cc1 (stereo not given)', '%', -1.71),
  ('Cc1ccc(S(=O)(=O)C2(C(=O)Nc3nccs3)CC2)cc1', '%', -2.44),
  ('O=C(Nc1nccs1)NC(C(F)(F)F)C(F)(F)F', '%', -6.44),
  ('O=C(Nc1ccc2c(c1)OCO2)c1cc2ncc(Br)cn2n1', '%', -4.67),
  ('Cc1nc2scc(-c3cccs3)c2c(=O)n1-n1cccc1', '%', -1.79),
  ('Cc1nc(-c2cccc(N)c2)cs1', '%', -1.33);

Consider the following items and state reported inhibition for each.
1. CCCN(Cc1cc2cc(C)ccc2[nH]c1=O)C(=O)c1cccc(OC)c1
2. COc1ccccc1Cn1nnc2c(=O)[nH]c(C3CCN(C(=O)c4ccccc4Cl)CC3)nc21
3. CCOc1ccc(S(=O)(=O)Nc2ccccc2C(=O)Nc2ccccc2N2CCOCC2)cc1

# output
1. -7.07
2. -3.64
3. -6.67

Hi, could you look up inhibition for each item in my list?
1. Brc1ccc(-c2csc(/N=C/N3CCOCC3)n2)cc1
2. CN(c1ccccc1)C(c1ccc(F)cc1)c1nnnn1CC1CCCO1 (stereo not given)

# output
1: -4.4; 2: -4.32

// input: 3 compounds below; output: inhibition for each
1. O=C(Cn1ccc2ccccc2c1=O)NCCC(=O)NC1CCN(Cc2ccccc2)CC1
2. CCn1c(SCC(=O)c2ccc3c(c2)OCCO3)nnc1-c1ccco1
3. Fc1ccc(Cn2nnc(-c3ccc(CN4CCOCC4)cc3)n2)cc1

# output
[3.29, -4, 84.7]

// batch mode: one inhibition value per listed entry
1. COC(=O)CC1C(=O)NCCN1C(=O)NC1CCCCC1 (stereo not given)
2. Cn1c(SCC(=O)N2CCOCC2)nnc1-c1cccc(NC(=O)c2ccccc2F)c1
3. CCOCCc1nnc(NC(=O)c2ccc(OC)c(OC)c2)s1
4. COc1ccccc1OCC(=O)Nc1cccc(-c2nc3ccccc3o2)c1
5. COc1ccc(N2CCN(c3nc4c(c(=O)[nH]c(=O)n4C)n3CCCc3ccccc3)CC2)cc1
6. CCCCN(c1ccccc1)S(=O)(=O)c1ccc2c(c1)CCN2C(=O)CCC(=O)O
7. CCOC(=O)c1[nH]c(=O)c2ccccc2c1O

# output
1. -9.59
2. -0.92
3. -6.4
4. -0.13
5. -6.8
6. -1.58
7. -10

Batch request: inhibition per item, same order as input.
1. Cc1n[nH]c(C)c1S(=O)(=O)N1CCN(c2ccccn2)CC1
2. COc1cc(Br)cc(/C=N/c2ncn[nH]2)c1O

# output
[-0.26, -4.81]

###

Assignment: determine reported viability for the given molecules.
measurement.notes: SK-BR-3 cell growth inhibitors, pilot screen, 24 h, human (AID 572);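 also: compound exposure lasted between 18 and 24 h rather than exactly 24 h; 100% = carrier-treated control wells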
measurement.parameters: SK-BR-3 viability, CellTiter-Glo luminescence, at 10 µM, stronger effect = lower value
One number for each entry, in %.

Answered examples (10):
INSERT INTO measurements (molecule, quantity_name, recorded_measurement) VALUES
  ('COC(=O)CC1C(=O)NCCN1C(=O)NC1CCCCC1 (stereo not drawn)', 'viability', 94),
  ('Cc1cc(NC(=O)CSc2nc3ccccc3n2CC(=O)N2CCCCC2)no1', 'viability', 78),
  ('O=C(c1cccnc1NCc1ccccc1)N1CCOCC1', 'viability', 77.5),
  ('Cc1nnc(SCC(=O)N2CCC(C(=O)Nc3nccs3)CC2)n1Cc1ccccc1', 'viability', 91.5),
  ('C=CCn1c(CC#N)nnc1N1CCOCC1', 'viability', 90.5),
  ('Nc1sccc1C(=O)c1ccc(Cl)cc1', 'viability', 100),
  ('O=C(Nc1cccnc1)c1ccc2c(c1)C(=O)N(Cc1cccnc1)C2=O', 'viability', 96.5),
  ('CN(C)S(=O)(=O)c1ccc(C(=O)NCc2cccs2)cc1', 'viability', 82),
  ('COc1ccc(N2CCN(C(=O)C(OC(C)=O)c3ccccc3)CC2)cc1 (stereo not drawn)', 'viability', 96.5),
  ('Cc1ccc(NCC(O)C(O)C(O)CO)cc1C (stereo not drawn)', 'viability', 113);

For the 7 molecules below, give their viability values.
1. Cn1c(=O)c2c(nc(N3CCCCC3)n2CCSc2nc3ccccc3o2)n(C)c1=O
2. Cn1c(CCCNC(=O)c2ccccc2)nc2ccccc21
3. CC1=C/C(=C/N(C)c2ccccc2)C(=O)S1
4. O=S(=O)(c1ccc(S(=O)(=O)N2CCN3CCCC3C2)cc1)N1CCCC1 (stereo not drawn)
5. CCN(Cc1cc2ccccc2[nH]c1=O)S(=O)(=O)c1ccccc1
6. Cc1ccc(-c2nnc(N(C)C(=O)c3ccccn3)s2)cn1
7. O=C(OCC#CCSc1nc2ccccc2o1)c1ccco1

# output
1: 100; 2: 112; 3: 109; 4: 80.5; 5: 110; 6: 133; 7: 112

Look at each molecule and report its viability.
1. CCOC(=O)c1c(NC(=O)c2cccs2)sc(C)c1C
2. Cc1ccc(Cn2nnc3c(=O)[nH]c(C4CCN(C(=O)c5cccs5)CC4)nc32)cc1

# output
[77, 90.5]

Give viability for each listed item.
1. CCn1c(COc2cccc3ccccc23)nnc1SCC(N)=O
2. C#CCSc1nnc(-c2ccccc2)c(=O)[nH]1
3. c1cn(C23CC4CC(CC(C4)C2)C3)cn1
4. Cc1cc2ncn(C(=O)c3c(-c4ccccc4)noc3C)c2cc1C
5. CC(C)(C)N(Cc1cc2ccccc2[nH]c1=O)C(=O)C1CCCCC1

# output
[96, 92.5, 113, 102, 104]

// each listed molecule needs a value for viability
1. O=C(Nc1ccc2c(c1)OCO2)C1CCCN1C(=O)Nc1ccccc1F (stereo not drawn)
2. Cc1ccc2c(Cl)cc(Cl)c(OCc3c(C)noc3C)c2n1
3. Cc1nn(S(=O)(=O)N2CCCCC2)c(C)c1Br

# output
1. 110
2. 102
3. 95

# input Tell me viability reported for O=C(Nc1ccc(-c2noc(-c3cccs3)n2)cc1)c1cccnc1
# output 74.5

###

I'd be grateful if you could share measured inhibition for these entries.
measurement.notes: 384-well plate pilot, post-Golgi transport modulator project, inhibition of yeast transport mutant growth (AID 636)
measurement.parameters: absorbance 615 nm, about 18 h, stronger effect = higher value
Numbers only, in %.

INSERT INTO measurements (molecule, quantity_name, recorded_measurement) VALUES
  ('CCCOc1nc(N)c(C#N)c(-c2ccccc2F)c1C#N', 'inhibition', -2.53);

Batch request: inhibition per item, same order as input.
1. CCOC(=O)Nc1cc(OCC)c(NC(=O)C2CC2)cc1OCC
2. COc1ccc2nc(NC(=O)c3ccoc3C)sc2c1
3. Cn1ccnc1SCCC#N
4. O=C(Cn1ccc2ccccc2c1=O)Nc1ccc2c(c1)OCO2
5. CCOc1ccc(-n2c(=O)cc(N3CCN(c4ccccc4)CC3)[nH]c2=O)cc1
6. CCn1c(NCc2ccc(N(C)C)cc2)nc2ccccc21

# output
[-6.13, -3.82, -2, 1.49, -6.13, -2.03]

For each entry beneath this line, provide reported inhibition.
1. CCCCN(C)Cc1c(C)[nH]c2c(Cl)cccc2c1=O
2. Cc1cc(Cl)cc2c1NC(=O)[C@]21[C@@H]2C(=O)N(Cc3ccccc3)C(=O)[C@@H]2[C@@H]2CCCN21
3. Cn1nnnc1SCc1cn2cccnc2n1
4. CC1Cc2ccccc2N1C(=O)CSc1nnc2n1C(C)(C)Cc1ccccc1-2 (configuration not stated)
5. COc1cccc(Nc2cc(C)nc3ccccc23)c1
6. Cc1ccc(N2CC(C(=O)N3CCN(C(=O)c4ccco4)CC3)CC2=O)cc1 (configuration not stated)

# output
1: -4.34; 2: -3.77; 3: -5.33; 4: -6.4; 5: -4.4; 6: 0.39

Provide the reported inhibition of each entry below, same order.
1. Cc1cccc(C)c1NC(=O)CS(=O)CC(=O)NC1CCCc2ccccc21 (configuration not stated)
2. O=C(O)COc1ccc2occ(C(=O)c3ccccc3)c2c1
3. COc1cccc(OC)c1OCCN1CCN(C(=O)c2ccco2)CC1
4. Cc1ccsc1C1C2=C(CCCC2=O)Nc2ncnn21 (configuration not stated)
5. Cc1cc(NS(=O)(=O)c2ccc(Nc3nc(-c4sc(N)nc4C)cs3)cc2)no1
6. CCOC(=O)c1ccccc1NC(=O)N1CCn2c(C)ccc2C1CC (configuration not stated)
7. O=C(Nc1ccccc1-c1ccccc1)NC1CCN(CC(=O)N2CCOCC2)CC1
8. CCOC(=O)C1CCN(c2nc3ccccc3nc2C(C#N)C(=O)OCCOC)CC1 (configuration not stated)

# output
1: -6.8; 2: -3.55; 3: -6.85; 4: -1.32; 5: -4.08; 6: -4.46; 7: -2.34; 8: -6.71

# input Retrieve inhibition measured for Cc1cccc(NC(=O)c2cc3n(n2)C(C(F)(F)F)CC(c2ccc4c(c2)OCO4)N3)c1 (configuration not stated) and print it.
# output -0.53
